Where these numbers come from: the supplement of paper PMC11208160

Assay: recombinant UMI read abundance after kanamycin selection (control-corrected) (log10(CPM+1)); higher = more efficient recombination; extreme values may be limits of the assay; sequences stand for … in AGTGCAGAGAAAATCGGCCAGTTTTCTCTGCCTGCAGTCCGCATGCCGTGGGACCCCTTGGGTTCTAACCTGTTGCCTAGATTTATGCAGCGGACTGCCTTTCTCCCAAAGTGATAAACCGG…AGGTTGGTTTCACT; site = the 11-nt donor;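 also: IS621 bridge recombinase in Escherichia coli cells against a fixed T5 target plasmid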
Recorded recombinant UMI read abundance (log10), one value per entry.
Reply briefly: the number, and no unit.

Example entries and their recorded answers appear below.
sequence.string	recombinant UMI read abundance (log10)
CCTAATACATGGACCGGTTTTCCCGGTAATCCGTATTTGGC (site CCTAAGACTGC)	0
GATGTACCATGGACCGGTTTTCCCGGTAATCCGTATTTGGC (site GATGTACCTGC)	0.247
AGCCTGGCATGGACCGGTTTTCCCGGTAATCCGTATTTGTT (site AGCCTTGCTAA)	0.0159
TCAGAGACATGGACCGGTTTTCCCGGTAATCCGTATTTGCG (site TCGGAGACTCG)	0.836

Okay, next one:
Given the sequence CGTTATACATGGACCGGTTTTCCCGGTAATCCGTATTTGAG (site CGTTATACTCT) , what is its reported recombinant UMI read abundance (log10)?
1.25
